compounds and their reported composite z-score
molecular target: Streptavidin (Streptomyces avidinii); experiment: compounds binding control protein streptavidin – biophysical, small-molecule microarray, 635/667 nm fluorescence, artefact control for SMM compound annotation, primary screen (AID 1147); settings: higher = more signal;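 also: signal reflects streptavidin binding to arrayed compounds as a control protein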
Give only the figure.

The examples below pair each entry with its known result.
CC(C)[Si]1(C(C)C)O[C@@H](c2ccccc2)c2cc(-c3ccc(-c4ccc(Cl)c(Cl)c4)o3)nc(CCc3ccccc3)c21 | -0.549
COC(=O)[C@@]1(Cc2ccc(F)cc2)[C@H]2c3cc(C(=O)N(C)C)n(Cc4ccccn4)c3C[C@H]2CN1C(=O)c1ccccc1 | 0.751
CCCCC(=O)N(Cc1ccccc1F)[C@@H]1CC(C(=O)NCCO)=C[C@H](Oc2c(I)cc(CO)cc2OC)[C@H]1O | -0.291
C#C[C@H]1Oc2ccccc2S(=O)(=O)N2CCC[C@@H]12 | -0.14
CCN(CC)c1ccc(N2CC=CC34O[C@@H]5/C=C\CCCOC(=O)C5[C@H]3C(=O)N(CCCO)[C@@H]4C2=O)cc1 (stereo not given in full) | -1.12
Cc1ccccc1/C=C/C=O | -0.943
[N-]=[N+]=NCc1ccccc1[C@@H]1OC(c2ccc(OCCCO)cc2)=N[C@]1(Cc1ccccc1N=[N+]=[N-])C(N)=O | 2.16
O=C1C[C@@](C(=O)O)(c2ccc([N+](=O)[O-])cc2)[C@@H](c2ccc(CO)cc2I)N1C1CCCCC1 | 0.988
CC(=O)NCCCC[C@@H]1NC(=O)[C@@H]2C[C@H](C(=O)NCc3ccc(F)cc3)[C@H](c3ccc(O)cc3)N2C1=O | 0.0542

// switching to the query compound
Entry "CCOC(=O)C=Cc1cccc(OC)c1O" has what composite z-score?
-0.432

----------
target: Epidermal growth factor receptor (Homo sapiens); assay: compounds binding epidermal growth factor receptor – biochemical, small-molecule microarray, 635 nm fluorescence, primary screen (AID 1104); settings: EGFR binding, higher = more signal;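 also: score merges 667 nm emission intensity with spot signal to noise over triplicate slides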
# label = yes if composite z-score >= 0.2 else no

Hi team, for "C=CCN1C(=O)[C@@]2(O[C@@H](CCO)[C@H]([Si](C)(C)c3ccc(OC)cc3)[C@H]2C)c2cc(NC(C)=O)ccc21" , is the recorded composite z-score at or above 0.2?
yes

Another molecule: "C=CC[C@@]1(C(=O)NCc2ccccc2)N=C(c2ccc(OCCCO)cc2)O[C@@H]1c1ccccc1CN=[N+]=[N-]"
no

Another molecule: "COc1ccc(C#Cc2ccc3c(c2)[C@]2(C(=O)N3)[C@H](c3ccc(OCCO)cc3)N3[C@H](c4ccccc4)[C@H](c4ccccc4)OC(=O)[C@H]3[C@@H]2C(=O)Nc2nc3ccccc3s2)cc1"
yes

Another molecule: CN1C(=O)C2C=CC(C(O)C(C)(C)C)N(Nc3ccccc3)C2C1=O (stereo not given)
no

Another molecule: "C=C(C(=O)CC[C@H](OC(=O)c1cccnc1)c1ccccc1OCCO)C(C)C"
yes

Another molecule: O=C1C2C=CC(C(O)c3ccc(-c4ccccc4)s3)N(Nc3ccccc3F)C2C(=O)N1c1ccccc1 (stereo not given)
yes

Another molecule: "C=CCOC(=O)[C@@H]1[C@H]2C(=O)O[C@H](c3ccccc3)[C@H](c3ccccc3)N2[C@H](c2ccc(OCCOC(=O)[C@H]3C[C@H]4C(=O)N[C@@H](CC(C)C)C(=O)N4[C@H]3c3cccc(OCCO)c3)cc2)[C@@]12C(=O)Nc1ccc(I)cc12"
yes

Another molecule: "O=C1O[C@H](c2ccccc2)[C@H](c2ccccc2)N2[C@H]1[C@@H](C(=O)NC[C@H](O)c1ccccc1)[C@]1(C(=O)Nc3ccc(C#CC4(O)CCCCCC4)cc31)[C@H]2c1ccccc1OCCO"
no

Another molecule: COCC1C2CC[C@H]3C(OCc4ccc(F)cc4C(F)(F)F)OC[C@]4(C)[C@H]3C2=C(CN4C(=O)OC(C)(C)C)[C@H](C)C1COC (stereo not given in full)
no

Another molecule: O=C1OCC=C[C@H]2OC34C=CCN(c5ccc(Cl)cc5)C(=O)[C@H]3N(CCCO)C(=O)[C@@H]4[C@@H]12 (stereo not given in full)
no

Another molecule: "O=[N+]([O-])c1ccc(C[n+]2ccc(CCCO)cc2)o1"
yes

Another molecule: "COCCn1c(C(=O)N2CCCC2)cc2c1C[C@H]1CN(C(=O)c3ccccc3)[C@@](Cc3ccc(OC)cc3)(C(=O)OC)[C@@H]21"
no

Another molecule: "C=CCOC(=O)[C@@H]1[C@H]2C(=O)O[C@H](c3ccccc3)[C@H](c3ccccc3)N2[C@H](c2ccc(OCCOC(=O)[C@H]3C[C@H]4C(=O)N[C@@H](Cc5ccccc5)C(=O)N4[C@H]3c3ccc(O)cc3)cc2)[C@@]12C(=O)Nc1ccc(I)cc12"
yes

Another molecule: CCN(CC)c1ccc(N2CC=CC34O[C@@H]5C=CCOC(=O)[C@@H]5[C@H]3C(=O)N(CCCCCO)[C@@H]4C2=O)cc1 (stereo not given in full)
no

Another molecule: "CC(C)(C)OC(=O)CC[C@@]1(C(=O)N2CCOCC2)N=C(c2ccc(OCCCO)cc2)O[C@@H]1c1ccccc1N=[N+]=[N-]"
yes

Another molecule: "COc1ccc([Si](C)(C)[C@H]2[C@H](CC(=O)N3CCC[C@H]3CO)O[C@@]3(C(=O)N(Cc4cccc(N5CCC5=O)c4)c4ccccc43)[C@@H]2C)cc1"
yes

Another molecule: "C[N+](C)(C)CCCCNC(=O)[C@H]1C[C@H]2C(=O)N3CCC[C@H]3C(=O)N2[C@H]1c1ccc(O)cc1"
yes

Another molecule: CN1C(=O)C2C=CC(C(O)C=Cc3ccc([N+](=O)[O-])cc3)N(N3CCCCC3)C2C1=O (stereo not given)
yes

Another molecule: CC1(C)C(=O)C(c2ccccc2)=C2CN3C(=O)N(CCc4ccccc4)C(=O)C3(Cc3ccccc3)C=C21 (stereo not given)
no

Another molecule: CCCCN1CC=CC23O[C@@H]4C=CCCOC(=O)C4[C@H]2C(=O)N(CCCO)[C@@H]3C1=O (stereo not given in full)
no

Value source: PubChem BioAssay
